Entries annotated with measured IC50
biological target: Histone-lysine N-methyltransferase EHMT2 (Homo sapiens, UniProt Q96KQ7)
Sequence (Q96KQ7 whole entry): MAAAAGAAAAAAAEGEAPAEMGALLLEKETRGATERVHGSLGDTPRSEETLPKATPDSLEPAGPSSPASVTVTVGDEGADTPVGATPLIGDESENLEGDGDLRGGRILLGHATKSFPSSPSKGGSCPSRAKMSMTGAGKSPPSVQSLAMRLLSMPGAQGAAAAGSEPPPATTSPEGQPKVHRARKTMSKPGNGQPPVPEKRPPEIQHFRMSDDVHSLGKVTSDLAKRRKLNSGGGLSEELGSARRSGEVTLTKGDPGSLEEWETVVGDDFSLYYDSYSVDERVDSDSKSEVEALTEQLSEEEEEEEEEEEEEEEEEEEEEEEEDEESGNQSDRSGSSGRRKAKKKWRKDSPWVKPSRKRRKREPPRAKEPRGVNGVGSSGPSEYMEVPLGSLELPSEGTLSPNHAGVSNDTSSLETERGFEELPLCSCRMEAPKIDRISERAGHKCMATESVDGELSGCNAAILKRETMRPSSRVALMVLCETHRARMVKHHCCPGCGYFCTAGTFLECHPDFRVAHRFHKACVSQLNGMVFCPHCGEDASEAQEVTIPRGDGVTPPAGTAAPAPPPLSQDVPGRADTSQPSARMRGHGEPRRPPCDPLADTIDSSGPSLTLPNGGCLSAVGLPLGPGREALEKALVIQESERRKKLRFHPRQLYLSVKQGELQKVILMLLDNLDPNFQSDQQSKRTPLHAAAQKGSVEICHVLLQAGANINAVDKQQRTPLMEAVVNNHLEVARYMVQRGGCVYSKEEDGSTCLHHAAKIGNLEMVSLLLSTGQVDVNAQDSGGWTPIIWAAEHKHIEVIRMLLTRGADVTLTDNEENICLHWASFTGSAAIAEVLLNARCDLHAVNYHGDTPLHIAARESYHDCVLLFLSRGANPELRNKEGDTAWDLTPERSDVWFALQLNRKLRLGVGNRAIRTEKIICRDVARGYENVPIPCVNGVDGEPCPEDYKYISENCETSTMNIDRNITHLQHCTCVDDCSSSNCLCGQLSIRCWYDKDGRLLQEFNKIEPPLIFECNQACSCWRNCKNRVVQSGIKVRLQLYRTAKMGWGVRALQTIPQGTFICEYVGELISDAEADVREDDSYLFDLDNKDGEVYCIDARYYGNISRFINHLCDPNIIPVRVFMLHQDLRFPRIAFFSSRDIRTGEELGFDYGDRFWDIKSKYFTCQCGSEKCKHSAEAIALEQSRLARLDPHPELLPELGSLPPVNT

                                   compound                                       tgt  reported_value
0  COc1cc2c(NC3CCN(C(C)C)CC3)nc(N3CC(F)(F)C3)nc2cc1C#CCCN1CCCC1 [US20230365530, Example 58]  Histone-lysine N-methyltransferase EHMT2 (Homo sapiens, UniProt Q96KQ7)        < 100 nM

Moving on to the next compound.
Query: # get_value(readout='IC50', item= COc1cc2c(NC3CCN(C(C)C)CC3)nc(N(C)CC(=O)OC(C)(C)C)nc2cc1C#CCCN1CCCC1 [US20230365530, Example 82] )
Response: < 100 nM
